experiment_summary: qHTS Assay for Lipid Storage Modulators in Drosophila S3 Cells
protocol_conditions: BODIPY lipid droplet fluorescence, 18-24 h, cells fed with added oleic acid; series mostly up to 46.1 µM
In all, about 320,000 compounds went through this assay and about 2,100 (0.66%) were called active. Roughly 53% stayed inconclusive and do not appear here. The sample as a whole holds a higher share of actives than the screen did.

{"columns": ["compound", "outcome"],
 "data": [
  ["COc1ccc(C(=O)C(C)OC(=O)c2cccc(S(=O)(=O)Nc3cc(Cl)c(OC)cc3OC)c2)cc1 (stereo unspecified)", "inactive"],
  ["COc1ccc2oc(=N)c(C(=O)NCc3ccccc3)cc2c1", "inactive"],
  ["CCN(CC)C(=O)c1ccc(-c2cccs2)s1", "inactive"],
  ["Cc1ccccc1OCCNc1ccc(C(F)(F)F)cc1[N+](=O)[O-]", "inactive"],
  ["Cc1cccc(N2CCN(S(=O)(=O)c3c(C)noc3/C=C/N(C)C)CC2)c1C", "inactive"],
  ["O=S(=O)(N/N=C/c1cccnc1)c1ccc(Cl)c(Cl)c1", "inactive"]
]}
